- System: Radical scavenging activity
- assay_remarks: Antioxidant activity assessed as DPPH radical scavenging activity in ethanol solution at 5 ug/mL
- Assay type: functional
I'd appreciate it if you could supply Activity values for the items below.
Give just the number in %; leave the unit off.

Task: Consider the molecule Cc1cc(O)c(C(C)C)cc1/N=C/c1ccc([N+](=O)[O-])cc1 . State its measured Activity.
Output: 10.3

Task: Supply recorded Activity for COc1ccc(/C=N/c2cc(C(C)(C)C)c(O)cc2C)cc1 here.
Output: 29.2

Task: Read off the recorded Activity for Cc1ccc(C(C)C)cc1O
Output: 5.17

Task: Return the recorded Activity value; entry: Cc1cc(O)c(C(C)(C)C)cc1/N=C/c1ccc(Cl)cc1
Output: 29.7

Task: Quickly give me recorded Activity for Cc1cc(O)c(C(C)C)cc1/N=C/c1cc(Br)cc(Br)c1O
Output: 26.8

Task: Look up and state reported Activity for Cc1cc(/N=C/c2ccc3c(c2)OCO3)c(C(C)C)cc1O
Output: 28.8

Task: Supply measured Activity of Cc1cc(O)c(C(C)(C)C)cc1/N=C/c1ccc(Br)cc1 in your reply.
Output: 32.8

Task: Please indicate Activity recorded for Cc1cc(/N=C/c2ccc(Br)cc2)c(C(C)C)cc1O
Output: 28.8

Task: Please report Activity for the following molecule: Cc1ccc(/C=N/c2cc(C)c(O)cc2C(C)C)cc1
Output: 22.1

Task: Quickly give me recorded Activity for Cc1cc(O)c(C(C)(C)C)cc1/N=C/c1ccc(C(C)(C)C)cc1
Output: 27.5

Task: Provide one value: measured Activity of Cc1cc(/N=C/c2ccccn2)c(C(C)C)cc1O
Output: 23.4

Task: Give the measured Activity for Cc1cc(O)c(C(C)C)cc1/N=C/c1cccnc1
Output: 16.5

Task: Find the measured Activity of Cc1ccc(C(C)(C)C)c(O)c1 and report it.
Output: 3.29

Task: Please indicate Activity recorded for CCc1ccc(/C=N/c2cc(C(C)C)c(O)cc2C)cc1
Output: 28.8

Task: Tell me Activity reported for Cc1cc(/N=C/c2ccc(C(C)(C)C)cc2)c(C(C)C)cc1O
Output: 25

Task: Look up and report measured Activity for this entry: CCCc1ccc(/C=N/c2cc(C(C)C)c(O)cc2C)cc1
Output: 25.1

Task: Give Activity for Cc1ccc(/C=N/c2cc(C(C)(C)C)c(O)cc2C)cc1
Output: 27.2

Task: For Cc1cc(O)c(C(C)C)cc1/N=C/c1ccc2c(c1)OCO2 , write its Activity.
Output: 27.3

Task: Give a short answer stating reported Activity for COc1ccc(/C=N/c2cc(C(C)C)c(O)cc2C)cc1 .
Output: 27.3

----------
Hi there, I'd appreciate the recorded Activity for every entry that follows.
- Tested on: Radical scavenging activity
- assay_remarks: Antioxidant activity assessed as DPPH radical scavenging activity in chloroform solution at 25 ug/mL
- Type: functional
# output: numeric value plus its unit

Task: Note Activity for the compound shown: Cc1cc(O)c(C(C)C)cc1/N=C/c1cc(Br)cc(Br)c1O
Output: 68.3%

Task: For the compound COc1ccc(/C=N/c2cc(C(C)(C)C)c(O)cc2C)cc1OC , report Activity.
Output: 72%

Task: Write down Activity measured for item Cc1cc(O)c(C(C)(C)C)cc1/N=C/c1ccccc1O
Output: 70%

Task: Determine from records and report Activity for COc1ccc(/C=N/c2cc(C(C)(C)C)c(O)cc2C)cc1
Output: 82.6%

Task: Tell us which Activity value is on record for Cc1cc(/N=C/c2cc(Br)cc(Br)c2O)c(C(C)C)cc1O
Output: 65.8%

Task: Name the recorded Activity of the item Cc1cc(/N=C/c2ccc(O)cc2)c(C(C)C)cc1O in your answer.
Output: 66.2%
